test system: MOLT-4; assay: NCI tumour cell line growth inhibition, 48 h
Activity calls are given as the source filed them. Rule as the data show it: active = GI50 up to about 1.1 µM and inactive = higher.
value.kind: GI50

- c1ccc2c(c1)Nc1nc3nonc3nc1N2: > 100 µM (inactive)
- COc1cc(/C=C2\C(=O)N(c3cccc([N+](=O)[O-])c3)C(c3ccccc3)S2(=O)=O)cc(OC)c1OC (stereo not given): 74 µM (inactive)
- O=C1C(c2ccccc2)=C(c2ccccc2)C1(Cl)Cl: 2.55 µM (inactive)
- CC1=C(C)CC2(C=C(C(C)(C)C)C(=O)C(C(C)(C)C)=C2)SC1: 27.4 µM (inactive)
- COC(=O)c1c(CC(=O)OC(C)C)cc2n(c1=O)Cc1c-2nc2ccccc2c1OC: > 100 µM (inactive)
- CCOC(=O)C(Cc1ccc([N+](=O)[O-])cc1)NC(=O)CC1c2ccccc2-c2ccccc21 (stereo not given): > 100 µM (inactive)
- O=C(Cn1ccnc1[N+](=O)[O-])N(CCO)CCO: > 250 µM (inactive)
- N/C(=N\c1ccc(Cl)cc1)NS(=O)(=O)c1ccc(-c2ccccn2)s1: 2.41 µM (inactive)
- CN(C)/N=C1\CC(c2ccccc2)C(C#N)(C#N)C1(C#N)C#N (stereo not given): 4.53 µM (inactive)
- NC(=S)N/N=c1\cc(C(=O)Nc2ccc([N+](=O)[O-])cc2[N+](=O)[O-])oc2ccccc12: > 100 µM (inactive)
- CC(C)(C)c1cc(C(OCCl)(C(F)(F)F)C(F)(F)F)c2c(c1)C(C(F)(F)F)(C(F)(F)F)OC21c2ccccc2C(=O)c2ccccc21: > 100 µM (inactive)
- O=S(=O)(O)c1ccc2c(/N=N/c3ccc(Sc4ccc(/N=N/c5c(O)ccc6cc(S(=O)(=O)O)ccc56)cc4)cc3)c(O)ccc2c1: > 100 µM (inactive)
- C#CCNC(=O)ON1C(=O)CCC1=O: > 100 µM (inactive)
- COC(=O)c1ccc(NCc2cc(O)ccc2O)cc1O: 2.09 µM (inactive)
- CC(C)=CCc1cc2c(cc1O)OC[C@H]1c3cc4c(cc3O[C@@H]21)OCO4: 22.1 µM (inactive)
- CS/C1=C(\c2ccc(C)cc2)N(c2ccccc2)C(=O)C(=O)N(c2ccccc2)/C(c2ccc(C)cc2)=C(/SC)SS1: > 100 µM (inactive)
- Cc1ccc(/C=N/NS(=O)(=O)c2ccccc2)c(C)c1: > 100 µM (inactive)
- COc1ccc(N2C(=O)C3c4[nH]c5ccccc5c4C4CCCCCCC4C3C2=O)cc1 (stereo not given): 8 µM (inactive)
- Nc1n[n+]2cc(-c3ccccc3)n(CC(=O)c3ccccc3)c2s1: 20.9 µM (inactive)
- Cc1occc(=O)c1O: > 100 µM (inactive)

====

Consider the following compounds and their measured GI50 readings.
system: PC-3; experiment: NCI tumour cell line growth inhibition, 48 h
Active and inactive are the calls of the source. No stated cut-off is given here; in the data, active = GI50 up to about 1.1 µM and inactive = higher.
value.kind: GI50

• COc1cc(/C=C2\C(=O)N(c3cccc([N+](=O)[O-])c3)C(c3ccccc3)S2(=O)=O)cc(OC)c1OC (stereo not given) = > 100 µM (inactive)
• CNC(=O)N(CCC#N)CCN(C(=O)NC)c1ccccc1 = > 100 µM (inactive)
• Cn1c2c(c3c(=O)[nH]ncc31)CCCc1ccccc1-2 = 26.1 µM (inactive)
• O=C1OC(c2ccco2)=N/C1=C\c1ccc(Cl)c(Cl)c1 = > 100 µM (inactive)
• CC1(C)C2CC3C4CC5(Nc6ccccc6C5N41)[C@]3(C)CC2=O (stereo not given in full) = > 50 µM (inactive)

====

system: UACC-62; experiment: NCI tumour cell line growth inhibition, 48 h
Calls of active or inactive are those of the source. Cut-off read from the data, not from the text of the source: active = GI50 up to about 1.1 µM and inactive = higher.
Consider the following compounds and their measured GI50 readings.
value.kind: GI50

* Oc1ccc2oc3c(O)c4ccccc4cc3c2c1 | 0.121 µM (active)
* CN1C(=O)C(O)CC1c1ccccc1F (stereo not given) | > 100 µM (inactive)
* CCOC(=O)c1c(-c2ccc(OC)cc2)c(C#N)c(=S)n(C2OC(CO)C(O)C(O)C2O)c1-c1ccccc1 (stereo not given) | 28.2 µM (inactive)
* C/C(=N\OCC(O)CNC(C)C)c1ccc2c(c1)NC(=O)CS2 (stereo not given) | > 100 µM (inactive)
* c1ccc([P+](CCC[P+](c2ccccc2)(c2ccccc2)c2ccccc2)(c2ccccc2)c2ccccc2)cc1 | 26.1 µM (inactive)
* CCCCCCCCOCC(O)COC(=O)CCCCCCC (stereo not given) | 50.8 µM (inactive)
* CCOC(=O)NC(=O)c1cn(CCN2CCN(c3ncnc4[nH]cnc34)CC2)c(=O)[nH]c1=O | > 100 µM (inactive)
* COc1cc(C2C(Cl)C(=O)N2NC(=O)c2ccc(NC(C)=O)cc2)cc(Br)c1O (stereo not given) | > 100 µM (inactive)
* Fc1ccc(Nc2nnc(-c3ccccn3)s2)cc1 | > 100 µM (inactive)
* Cc1ccc(C)c(NC(=O)C(=O)CC(=O)C2CCOC2=O)c1 (stereo not given) | > 100 µM (inactive)
* CCCCCCCCCCCCCCCC(=O)OCC1OC(OC)C(NC(=O)N(CCCl)N=O)C(O)C1O (stereo not given) | 2.02 µM (inactive)
* CN1CCCN(C)CCCN(C)CCCN(C)CCC1 | > 100 µM (inactive)
* CCCCC1=NNC(=O)C1 | > 100 µM (inactive)
* O=[N+]([O-])C(=C/c1cccc2ccccc12)/C(=C\c1cccc2ccccc12)[N+](=O)[O-] | 1.71 µM (inactive)
* N#Cc1cc(N(CCCl)CCCl)c([N+](=O)[O-])cc1[N+](=O)[O-] | > 100 µM (inactive)
* CC(C)(C)C(=O)C(C(c1ccccc1)N1CCOCC1)N1CCOCC1 (stereo not given) | > 100 µM (inactive)
* CCOC(=O)c1cc([N+](=O)[O-])c(Sc2ncnc3nc[nH]c23)c([N+](=O)[O-])c1 | 2.46 µM (inactive)
* C=CCN(C(=O)OC(C)(C)C)[C@H](C)C(=O)N[C@@H](C)C(=O)OC | > 100 µM (inactive)
* O=c1cc(N2CCOCC2)[nH]c(=O)n1-c1ccc(F)cc1 | > 100 µM (inactive)
* CCOC(=O)Cc1cc(=O)oc2cc(O)ccc12 | > 100 µM (inactive)
* Cn1c(NNc2ccccc2)cc(=O)[nH]c1=O | 36.1 µM (inactive)
* CCOC(=O)NNC(=O)NCc1ccccc1CNC(=O)NNC(=O)OCC | > 100 µM (inactive)
* O=C1OC(c2ccco2)=N/C1=C\c1ccc(Cl)c(Cl)c1 | > 100 µM (inactive)
* O=C(CCCCCCCCCCc1ccccc1)c1c(O)cccc1O | 20.7 µM (inactive)
* c1ccc(C2Nc3ccccc3C3OCCCC23)cc1 (stereo not given) | 11.6 µM (inactive)
* CCOP(=O)(OCC)C(C)(CC)N/C(N)=N/C#N (stereo not given) | > 100 µM (inactive)
* CCOC(=O)/C(=C\c1ccc[nH]1)C(=O)c1ccccc1 | 67.6 µM (inactive)
* CC1=C2C(=O)O[C@@H](c3ccoc3)[C@]2(C)CCC1 [FRAXINELLONE] | > 100 µM (inactive)
* CC(C)OCC1CC(CC(=O)Nc2nncs2)C(=O)O1 (stereo not given) | > 100 µM (inactive)
* Nc1n[n+]2cc(-c3ccccc3)n(CC(=O)c3ccccc3)c2s1 | 30.5 µM (inactive)
* O=C(Oc1ccc(C(c2c(O)c3ccccc3oc2=O)c2c(O)c3ccccc3oc2=O)cc1)c1ccc(C(=O)c2ccccc2)cc1 | 19.6 µM (inactive)
* O=C(NCCN(CCNC(=O)c1cccc(O)c1O)CCNC(=O)c1cccc(O)c1O)c1cccc(O)c1O [TRENCAM] | 4.78 µM (inactive)
* Cc1nc(O)nc2c1C(NCCCN(C)C)c1cc(Cl)ccc1N2 (stereo not given) | 13.4 µM (inactive)
* Oc1cc(-c2ccc(Oc3ccccc3)cc2)nc2cc3c(cc12)OCO3 | > 100 µM (inactive)
* NC(CCC(=O)O)C(=O)NC(Cc1ccc(N(CCCl)CCCl)cc1)C(=O)O (stereo not given) | > 100 µM (inactive)

====

system: UO-31; assay: NCI tumour cell line growth inhibition, 48 h
Activity calls are given as the source filed them. Rule as the data show it: active = GI50 up to about 1.1 µM and inactive = higher.
value.kind: GI50

- CC(C)(C)CC(C)(C)c1cc(O)c(O)c(CN2CCCCC2)c1: 13.3 µM (inactive)
- O=C(c1ccco1)c1ccccc1C(=O)c1ccco1: > 100 µM (inactive)
- CC1=C(C#N)c2nc3ccccc3n2C(=O)C1(C)CCO (stereo not given): > 100 µM (inactive)
- O=C1C(c2ccccc2)=C(c2ccccc2)C1(Cl)Cl: 3.61 µM (inactive)
- COc1ccc(-c2c(C(C)=O)c(C)n(C3OC(CO)C(O)C(O)C3O)c(=S)c2C#N)cc1 (stereo not given): > 100 µM (inactive)
- O=C1c2cc3c(cc2CC12Cc1ccc4c(c1C2=O)CCC4)CCC3 (stereo not given): > 100 µM (inactive)
- Cc1ccccc1CN1CC2=C(CCN(Cc3ccccc3)C2=O)N2CCN=C12: 6.81 µM (inactive)
- CC1=C(C(=O)NCc2ccccc2)C(c2ccc(N(C)C)cc2)C(C(=O)NCc2ccccc2)=C(C)N1: > 100 µM (inactive)
- Oc1nc2nnc(COc3ccc(Cl)cc3Cl)n2nc1Cc1ccccc1: 24.2 µM (inactive)
- Cc1cc(C)nc(NS(=O)(=O)c2ccc(NC(=O)c3cccc4c(Nc5ccc(S(=O)(=O)Nc6nc(C)cc(C)n6)cc5)c5ccc(Cl)cc5nc34)cc2)n1: 13.4 µM (inactive)
- Cc1nc(-c2nc(C)c(C(=O)/C=C/c3ccc([N+](=O)[O-])cc3)s2)sc1C(=O)/C=C/c1ccc([N+](=O)[O-])cc1: > 100 µM (inactive)
- COc1cc(C(=O)N2CCN(C=O)C2=S)cc(OC)c1OC: 0.0675 µM (active)
- COc1cc(C2c3cc4c(cc3[C@@H](Nc3ccc(F)cc3)C3COC(=O)[C@H]23)OCO4)cc(OC)c1O (stereo not given in full): 1.65 µM (inactive)
- O=C(NCCN(CCNC(=O)c1cccc(O)c1O)CCNC(=O)c1cccc(O)c1O)c1cccc(O)c1O: 14.9 µM (inactive)
- Cc1cn(Cc2ccccc2CCO)c(=S)[nH]c1=O: > 100 µM (inactive)
- C[C@@H](C(=O)O)N1C(c2ccco2)=C(/C(C=O)=C\c2ccco2)C(=O)/C1=C\c1ccco1: > 100 µM (inactive)
- N/C(=N/O)c1cn(C2OC(CO)C(O)C2O)c2ncnc(NO)c12 (stereo not given): 0.084 µM (active)
- O=C(Cc1nc2ccccc2c(=O)n1-c1c(Cl)cccc1Cl)c1ccncc1: 13.3 µM (inactive)
- CC1=NN2C(=N)/C(=C/c3ccco3)C(=O)N=C2S1: > 100 µM (inactive)
- COc1ccccc1NC(=O)C1=C(C)NC(C)=C(C(=O)Nc2ccccc2OC)C1c1cccc2ccccc12: 13.7 µM (inactive)
